The entries below pair compounds with pIC50 values for Tyrosine-protein kinase JAK3 (Homo sapiens), as found in several publications.
pIC50: −log10 of the molar value.
PROPERTY NAME: pIC50

compound=Fc1ccc2ncn(-c3ncc4nc(Cl)n([C@@H]5CCOc6c(F)cccc65)c4n3)c2c1 system="Tyrosine-protein kinase JAK3 (Homo sapiens)" property_name=pIC50 measured_result="> 7.00"
compound=CCC(=O)c1cnc(Nc2cnc(C3(N)CC3)cn2)cc1Nc1cccc(-c2ncn(C)n2)c1OC system="Tyrosine-protein kinase JAK3 (Homo sapiens)" property_name=pIC50 measured_result="≤ 6.30"
compound=O=c1[nH]c2c(-c3ccccc3)nc(-n3cnc4ccccc43)nc2n1C1CCOCC1 system="Tyrosine-protein kinase JAK3 (Homo sapiens)" property_name=pIC50 measured_result="6.00 to 7.00"
compound="NC(=O)c1cnc(Nc2ccc3c(c2)NC[C@H](OCC2CCCO2)CO3)nc1NC1CC1 (stereo partly shown)" system="Tyrosine-protein kinase JAK3 (Homo sapiens)" property_name=pIC50 measured_result="7.00 to 8.00"
compound=CCc1cc(O)c(F)cc1-c1nc(NCc2ccccc2N(C)S(=O)(=O)c2ccccc2)c2c(C(N)=O)n[nH]c2n1 system="Tyrosine-protein kinase JAK3 (Homo sapiens)" property_name=pIC50 measured_result=7.08
compound="N#CCC(=O)N1CC2CCN(Nc3ncnc4[nH]ccc34)CC2C1 (stereo not shown)" system="Tyrosine-protein kinase JAK3 (Homo sapiens)" property_name=pIC50 measured_result="< 6.00"
compound="O=c1[nH]c2c(CO)nc(-n3cnc4ccc(F)cc43)nc2n1C1CCOc2ccccc21 (stereo not shown)" system="Tyrosine-protein kinase JAK3 (Homo sapiens)" property_name=pIC50 measured_result="> 7.00"

---

The entries below pair molecules with IC50 values for UniProt:P52333, as found in several publications.
PROPERTY NAME: IC50

molecule=N#CCC(=O)N1CCC[C@@H](Nc2c(-c3cscn3)cnc3[nH]ccc23)C1 measured_result="10 to 100 nM"
molecule=CN(c1ncnc2[nH]ccc12)C1CCC2(CC1)CCN(C(=O)c1cc3ccccc3[nH]1)CC2 measured_result="100 to 1000 nM"
molecule=CCC(CC)n1cc(-c2nc(-c3cnn(C4CN(C(=O)[C@H]5C[C@@H](O)C5)C4)c3)cn3nccc23)cn1 measured_result="1000 to 10000 nM"
molecule=CNC(=O)c1n[nH]c2cc(-c3cc(F)c(O)cc3CC(F)(F)F)nc(NCc3cc(C)ccc3N(C)S(C)(=O)=O)c12 measured_result="207 nM"
molecule="CN(c1ncnc2[nH]ccc12)N1CCCC(CC(=O)NCC#N)C1 (centres unmarked)" measured_result="100 to 1000 nM"

---

The entries below pair molecules with pIC50 values for UniProt P52333, as found in several publications.
pIC50: −log10 of the molar value.
PROPERTY NAME: pIC50

molecule="O=C(NCC1CC1(F)F)c1noc2c1CN(c1ncnc3[nH]ccc13)CC2 (centres unmarked)" system="UniProt P52333" measured_result="> 7.00"
molecule=COc1c(Nc2cc(Nc3ccc(CN(C)C)cn3)ncc2C(=O)C2CC2)cccc1-c1ncn(C)n1 system="UniProt P52333" measured_result="≤ 6.30"
molecule="N#CCC(C1CC1)n1cc(-c2nc(-c3ccc(N4CC5CCC(C4)O5)cc3)cc3nccn23)cn1 (centres unmarked)" system="UniProt P52333" measured_result="6.00 to 7.00"
molecule="O=C(O)Cn1cc(Nc2ncc3ccn(CC4CCCCC4(F)F)c3n2)cn1 (centres unmarked)" system="UniProt P52333" measured_result="> 7.00"
molecule=CCC(CC)Cn1ccc2cnc(Nc3cnn(CC(=O)O)c3)nc21 system="UniProt P52333" measured_result="> 7.00"
